- targetEntity: T1, rat recombinant ADAMTS5 (rat, UniProt Q9R001 262-618 (mouse entry))
- T1 construct: in house, HEK293, His tag in the entry
- T1 chain: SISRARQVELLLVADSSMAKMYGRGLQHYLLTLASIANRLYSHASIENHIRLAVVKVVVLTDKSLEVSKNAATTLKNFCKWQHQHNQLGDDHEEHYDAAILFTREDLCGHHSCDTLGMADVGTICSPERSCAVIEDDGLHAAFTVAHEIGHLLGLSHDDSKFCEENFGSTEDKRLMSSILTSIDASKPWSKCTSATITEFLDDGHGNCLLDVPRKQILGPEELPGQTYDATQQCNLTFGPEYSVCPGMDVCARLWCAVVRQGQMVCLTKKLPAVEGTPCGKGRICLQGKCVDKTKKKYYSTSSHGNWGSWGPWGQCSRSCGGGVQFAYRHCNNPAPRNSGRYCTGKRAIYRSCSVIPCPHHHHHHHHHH
- method: SPR kinetics, Biacore T100, ADAMTS5 immobilised
readoutKind: pKd
Answers are plain numbers, as −log10 of the molar value.

- binder: "Nanobody 2A12 (VHH, tagged as tested (anti-Flag detection, IMAC); also called 02A12) VHH: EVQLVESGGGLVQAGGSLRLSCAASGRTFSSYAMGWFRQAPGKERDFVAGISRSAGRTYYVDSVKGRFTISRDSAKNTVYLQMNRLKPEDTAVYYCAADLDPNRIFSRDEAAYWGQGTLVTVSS"
  pKd: 9.00
- binder: "Nanobody 049 (11B06 (N52S)) (VHH, N-glycosylation motif knocked out; also called construct 049) VHH: EVQLVESGGGLVQAGGSLRLSCAASGLTFRRNAMGWFRQAPGKERELLAGISWSGGTTYYVDSVKGRFTISRDNAKNTVDLQMISPKPEDTAVYYCAADGDIGTLVNDENPRYWGQGTLVTVSS"
  pKd: 8.77
- binder: "Nanobody 093 (3F04 (N100fQ)) (VHH, N-glycosylation motif knocked out; also called construct 093) VHH: EVQLVESGGGSVQAGGSLRLSCVASGRYPMAWFRQAPGKEREFVAGVSWGGDRTYYADSVQGRFTVSRDYAKNTLYLQMNSLKPEDAAVYYCAGDPWGRLFRVKDQYSDWGQGTLVTVSS"
  pKd: 8.28

# context switch: different binder, same pKd
So what's the measured pKd for this one? Nanobody 2F03 (VHH, tagged as tested (anti-Flag detection, IMAC); also called 02F03; 2F3) VHH: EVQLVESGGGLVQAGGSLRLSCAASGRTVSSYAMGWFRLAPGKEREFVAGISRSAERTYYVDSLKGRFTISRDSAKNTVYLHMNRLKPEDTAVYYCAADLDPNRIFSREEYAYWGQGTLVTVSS
9.15

Reference for the values: patent US20200317802A1
